System: AncSZ
Assay protocol: phosphorylation enrichment, bacterial display (enrichment ratio); higher = better substrate or ligand; peptides without Tyr show the background
Reported phosphorylation enrichment is given for each of the following sequences.

Sequence string | phosphorylation enrichment
SNNYIYTTLGV [FAM83B_Y639_K640T] | 1.07
IHFAIYFLKFS [ARMC9_Y107_L108F_YF] | 0.835
PPVVNYEQDAR [FER_Y402_E404Q] | 1.33
EEEFEYMNRRR [ERBB3_Y1199_D1194E_YF] | 1.59
RYMELYDLNRD [BBS2_Y648] | 1.41
SCRENYSYSEE [LEMD3_Y258_D260Y] | 1.18
IDDLEYLHSQG [STK11_Y166_G163D] | 1.22
PASLSYLSFEG [EXOSC3_Y143] | 0.942
QSKGIYFVQLE [MGAT4B_Y262_YF] | 1.51
AALSAYAAQRP [PTPRN2_Y249] | 0.439
KLQKFYRKNPD [EHHADH_Y683_Q685K_YF] | 0.447
KHASTYREAAT [DEAF1_Y483] | 0.425
AEYGLYAAMVR [VSX2_Y222_G223A] | 1.65

* * *

Target under test: Grb2 SH2 (UniProt P62993)
Sequence (P62993 whole entry, looked up): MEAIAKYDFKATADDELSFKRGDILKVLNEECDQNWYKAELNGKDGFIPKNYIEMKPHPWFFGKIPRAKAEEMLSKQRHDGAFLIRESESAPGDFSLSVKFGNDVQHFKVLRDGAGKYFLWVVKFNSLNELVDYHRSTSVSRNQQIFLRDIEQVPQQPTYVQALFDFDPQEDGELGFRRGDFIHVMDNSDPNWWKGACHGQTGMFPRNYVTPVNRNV
Assay protocol: SH2 binding enrichment of the phosphorylated peptide, bacterial display (enrichment ratio); higher = better substrate or ligand; peptides without Tyr show the background
Lab note: compare SH2 binding enrichment against 0.8. Equal or greater, write YES. Smaller, write NO.

Sequence string | Cat
HRGFLYLAIEY [TEK_Y899_Y897F] | YES
HRGSLYLAIEY [TEK_Y899_Y897S] | NO
ESFCLYPPVPQ [CYP4B1_Y377_R375C] | YES
GRLFAYPDTHR [CAT_Y358] | YES
GFSRHCEDGFP [CTNND1_Y217_Y217C_YF] | NO
SHRQDYLVGNK [GSTA1_Y147_G144R] | NO
RHIEKYVDQGK [IRAK3_Y61] | YES
ETKRPYTVILI [SBDS_Y128] | YES
KEIHAYRKLLE [LMNA_Y376_M371K] | NO
GQAPGYSYTAA [CYCS_Y47] | YES
DLRTGYSVPFG [TGM1_Y370_Y365D_YF] | YES
YETDYYRKGGK [INSR_Y1190] | NO
SHNKFYMLVAH [MFSD8_Y134_R139H_YF] | YES
EQAERYDDMAA [YWHAG_Y20] | YES
NHRNQYQALKT [CLSPN_Y887_P892T] | YES
EYRFIYMAVQH [PTPN11_Y515_Q510E] | YES
LMIKEYLTKEL [BAG3_Y457_E455K] | YES
IHFAIYFLKFS [ARMC9_Y107_L108F_YF] | YES
QRIHNYYEHRY [HCN4_Y554_D553N] | YES
NGSKGYAYVHF [PABPC5_Y147] | YES
LMLVLYGRIFR [HTR1A_Y215] | YES
GTTIHYNFMCN [TP53_Y234_C229G_YF] | NO
TFWKKYRTFWK [CCDC70_Y125] | YES
FSLPAYMDRRD [COX4I1_Y38] | NO
SFCFRYRCAAQ [SUMF1_Y344_R349Q_YF] | YES
NELTFYCCKKD [CD59_Y87_YF] | YES
VSGIPYSQPKQ [NEU1_Y251_G252S] | NO
VIECSYTSADG [DHCR7_Y382] | YES

* * *

Target under test: Hck (UniProt P08631)
Sequence (P08631 whole entry, looked up): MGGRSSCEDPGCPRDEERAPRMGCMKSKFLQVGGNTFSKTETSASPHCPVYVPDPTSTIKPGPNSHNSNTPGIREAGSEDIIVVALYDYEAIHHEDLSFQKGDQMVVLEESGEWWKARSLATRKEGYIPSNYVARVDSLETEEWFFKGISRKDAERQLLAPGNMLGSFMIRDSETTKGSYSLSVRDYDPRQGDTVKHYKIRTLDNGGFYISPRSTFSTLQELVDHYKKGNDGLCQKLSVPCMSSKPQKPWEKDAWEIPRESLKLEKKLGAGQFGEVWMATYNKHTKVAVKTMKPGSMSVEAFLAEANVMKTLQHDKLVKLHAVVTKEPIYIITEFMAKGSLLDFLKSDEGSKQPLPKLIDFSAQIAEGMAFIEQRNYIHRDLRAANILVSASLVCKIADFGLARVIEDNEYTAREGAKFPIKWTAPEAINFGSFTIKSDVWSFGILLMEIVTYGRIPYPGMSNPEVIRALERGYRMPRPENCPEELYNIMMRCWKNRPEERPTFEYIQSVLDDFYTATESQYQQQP
Assay protocol: phosphorylation enrichment, bacterial display (enrichment ratio); higher = better substrate or ligand; peptides without Tyr show the background
Threshold check on phosphorylation enrichment: at or above 0.6 gives 1, strictly below gives 0.

Sequence string | Cat
LKGQVYILGWE [ASS1_Y359_R363W] | 0
VITDYYVDMKF [MPP4_Y567] | 1
PFGQWYESHFA [RPS8_Y113_R110G_YF] | 1
GPKSTYISSAA [GOLGA5_Y62] | 0
NTGFFYDLFGG [PTPN11_Y63_D61Y_YF] | 1
FRQLPYCPSVE [CTNND2_Y508_Q507P_YF] | 1
NHRNQYQALKT [CLSPN_Y887_P892T] | 0
LPHVIYCRLWR [SMAD2_Y128] | 1
CTLTHYKSAVK [ASNS_Y555_R550C] | 0
IRTIDYRFTVC [IDS_Y497_W502C_YF] | 0
RGEEPYTKKAL [TTC21B_Y160_K157E] | 1
TLQWMYGCDVG [HLA-B_Y123_S121W] | 0
GFGGGYGGVLT [KRT19_Y65_A60G_YF] | 0
KWELRYMHSRV [ABCD1_Y281_G277W] | 0
YSNKLHYQLEQ [PDPR_Y109_Y109H] | 0
ALKKPYGVLYK [RPF2_Y59] | 1
YQGGTYSKACT [FGG_Y380_S384C] | 0
SLAARYFNWVC [FLT4_Y1230_S1235C_YF] | 0
MDDDQYALLTA [EFCAB6_Y675_T680A] | 1
NPEACYQRLKK [TK2_Y190_T188A] | 1
SDTGQYQCLVF [AXL_Y115] | 1
REVVNYVQKRS [RMI1_Y450_N455S] | 0
SVVMPYEPPEV [TP53_Y220_V218M] | 0
LSTPEYGPKLK [TBC1D14_Y46_A43T] | 0
KEAALYPHLLP [SQSTM1_Y383_P387L] | 0
SRGLAYPARPA [LEMD2_Y122] | 0
YGMSTYITRED [FNDC3B_Y180] | 1
FSQQVYRVNLS [FAT4_Y480] | 0
DPGVSYRTREE [PDHA1_Y301] | 0

* * *

Target under test: Fes (UniProt P07332)
Sequence (P07332 whole entry, looked up): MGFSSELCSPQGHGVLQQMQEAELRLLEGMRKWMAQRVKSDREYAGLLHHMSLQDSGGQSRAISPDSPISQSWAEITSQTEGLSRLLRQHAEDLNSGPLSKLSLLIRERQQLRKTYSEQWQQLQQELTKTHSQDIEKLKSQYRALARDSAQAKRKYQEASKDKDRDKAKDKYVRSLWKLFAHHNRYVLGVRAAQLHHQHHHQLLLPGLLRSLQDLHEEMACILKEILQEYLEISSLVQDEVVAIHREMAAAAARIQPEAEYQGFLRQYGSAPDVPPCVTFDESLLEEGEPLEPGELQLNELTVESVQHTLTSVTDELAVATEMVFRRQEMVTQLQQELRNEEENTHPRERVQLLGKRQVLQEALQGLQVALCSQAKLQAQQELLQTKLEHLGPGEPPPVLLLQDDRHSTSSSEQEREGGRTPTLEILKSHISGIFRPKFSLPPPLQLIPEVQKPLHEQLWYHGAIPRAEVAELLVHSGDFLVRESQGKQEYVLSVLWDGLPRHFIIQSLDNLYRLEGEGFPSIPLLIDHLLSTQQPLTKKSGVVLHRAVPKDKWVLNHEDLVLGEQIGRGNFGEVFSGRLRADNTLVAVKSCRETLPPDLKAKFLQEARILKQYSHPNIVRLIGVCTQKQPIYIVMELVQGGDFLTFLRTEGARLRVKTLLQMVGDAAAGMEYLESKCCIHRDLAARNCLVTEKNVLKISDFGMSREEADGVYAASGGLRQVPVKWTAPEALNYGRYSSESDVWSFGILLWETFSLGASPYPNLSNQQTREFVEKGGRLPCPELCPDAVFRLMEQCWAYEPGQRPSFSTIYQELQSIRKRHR
Assay protocol: phosphorylation enrichment, bacterial display (enrichment ratio); higher = better substrate or ligand; peptides without Tyr show the background

Sequence string | phosphorylation enrichment
GDGRFYMMEAI [PGM1_Y66_K68M] | 1.26
SSDKVCAHQMV [MLH1_Y379_Y379C] | 0.606
ASENVYVNIAH [CTSC_Y150] | 0.827
RQEEEYKRLSE [SFSWAP_Y133] | 2.21
EPYEVYRIVPE [IRF8_Y110_K108E] | 1.15
CTSIHYNYMCN [TP53_Y234_T231S] | 0.805
SVVVPYEPSEV [TP53_Y220_P223S] | 1.23
SPYAVYLFFTF [RPGRIP1_Y826_R827L] | 1.08
DFDHSYFFIAT [ESD_Y262_G257D_YF] | 1.36
LPKVSCVKAID [GLRA1_Y307_Y307C] | 1.38
LTAEVYFPSIK [C5orf64_Y60] | 2.04
HRNGMYGLHQD [SGSH_Y89_Q85R] | 0.428
TQPSPYAVFLF [RPGRIP1_Y823_R827L_YF] | 0.915
LGSVVYAQSKE [KCNQ2_Y226_H228Q] | 1.31
SDFFAYSPVRE [H6PD_Y449_YF] | 1.02
PASWTYVRWFD [PTDSS1_Y274] | 1.79
IGSHAYGDQFR [IDH1_Y135_R132S_YF] | 0.556
TYGVAYRAKDK [CDK11B_Y453_V452A] | 0.807
GMKIVYVYVKK [DNAI2_Y5_E2K] | 1.12
FFLGKYLQEVL [KLB_Y910_YF] | 1.19
DRLAVYIDRVR [LMNA_Y45] | 1.11
AATTAYSKPKR [MAP3K7_Y405] | 0.563
PEAALYGRFTF [FYN_Y440_I445F] | 1.6
EPTPSYEVGQR [TSC2_Y1788_G1787S] | 0.895
PVFQVYPLLNC [GATA1_Y78] | 1.87
AGREIYESEKC [TTN_Y4424_D4427E] | 0.925
GQAPGYSYTAA [CYCS_Y47] | 0.665
RPPFTYATLIR [FOXP3_Y342] | 1.01
RRNTPYSQTMK [TET2_Y819_S817T] | 0.626

* * *

Target under test: Hck (UniProt P08631)
Assay protocol: phosphorylation enrichment, bacterial display (enrichment ratio); higher = better substrate or ligand; peptides without Tyr show the background
Each record gets a class by phosphorylation enrichment: I: < 0.5; II: ≥ 0.5 and < 0.6; III: ≥ 0.6

Sequence string | Target under test | Cat
VPHECYAKVFD [ALB_Y394_D389V] | Hck (UniProt P08631) | II
VRHRRYKHTHE [CTCF_Y343] | Hck (UniProt P08631) | III
FLAATYPTLGQ [NF1_Y2508_V2511L_YF] | Hck (UniProt P08631) | I
LMIKEYLTKEL [BAG3_Y457_E455K] | Hck (UniProt P08631) | II
DLAAQYTTVGH [SGSH_Y240_R245H] | Hck (UniProt P08631) | III
SVVVPDEPPEV [TP53_Y220_Y220D] | Hck (UniProt P08631) | II
GGYTCYCDGKK [PROS1_Y266] | Hck (UniProt P08631) | I
ANFTEYVATRW [CDKL5_Y171_YF] | Hck (UniProt P08631) | II
ATYRGYDSDNP [MMUT_Y146_H143Y] | Hck (UniProt P08631) | I
LDVGEYCVPRG [BEX1_Y43_A40V] | Hck (UniProt P08631) | III
RIAFQYGDTDL [MYBPC3_Y340_V342D] | Hck (UniProt P08631) | I
PIGRKYKKVRF [F8_Y442_R437P] | Hck (UniProt P08631) | II
